target: Tyrosine-protein kinase JAK2 (Homo sapiens); details: at 0.1 µM;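 also: mean percent inhibition of JAK2 activity, from the GSK PKIS kinase panel screen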
measurement label: inhibition (%)

> print(dat)
                                        mol  observed
1         COc1ccc(Nc2ncc(-c3ccccc3)o2)cc1OC      1.09
2  CN(C)CCNC(=O)Nc1ccc(N(C)c2ccnc(Nc3ccc(CS(C)(=O)=O)cc3)n2)cc1      1.46
3  CCOc1ccc2c(-c3ccnc(Nc4cc(OC)cc(C(F)(F)F)c4)n3)cnn2n1      1.22
4  NS(=O)(=O)c1ccc(N/N=C2\C(=O)Nc3cccc(CCc4ccncc4)c32)cc1       0.5
5  CNC(=O)c1sc(-n2cnc3cc(OC)c(OC)cc32)cc1OCc1ccccc1C(F)(F)F     -0.02
6  COc1cccc(-n2ncc3c(N/N=C/c4ccc(C(=O)NCCN(C)C)cc4)ncnc32)c1      2.63

====

inhibition values by entry
biological target: Homeodomain-interacting protein kinase 1 (Homo sapiens); details: at 0.1 µM;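 also: each value is a mean percent inhibition of HIPK1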
measurement label: inhibition (%)

> print(dat)
                                    compound  observed
 1  NS(=O)(=O)c1ccc(N/N=C2\C(=O)Nc3cccc(CCc4ccncc4)c32)cc1      -0.6
 2  CC1=C(C(=O)Nc2ccc3[nH]nc(C)c3c2)C(c2ccc(C(F)(F)F)cc2)CC(=O)N1 (stereo unspecified)      3.11
 3  NS(=O)(=O)c1cccc(N/C=C2\C(=O)Nc3ccccc32)c1     -0.03
 4  CCS(=O)(=O)c1ccc(OC)c(Nc2ncc(-c3cccc(C(C)=O)c3)o2)c1      5.49
 5  COc1cccc(-n2ncc3c(N/N=C/c4ccc(C(=O)NCCN(C)C)cc4)ncnc32)c1        47
 6  NS(=O)(=O)c1ccc(N/N=C2\C(=O)Nc3ccc(C(=O)NCc4ccncc4)cc32)cc1      10.9
 7  COc1c(C(N)=O)cc(-c2ccc(Cl)cc2)cc1-c1ccc(S(N)(=O)=O)cc1     -1.29
 8  CN1CCC(n2cnc(-c3ccc(F)cc3)c2-c2ccnc(NCCO)n2)CC1      3.91
 9  CCN1CCC(C(=O)Nc2n[nH]c3nnc(-c4cccc(F)c4F)cc23)CC1     -1.08
10  CS(=O)(=O)Nc1ccc(-c2cc(-c3ccccc3)cc(C(N)=O)c2N)cc1     -3.53
11  c1ccc(-c2n[nH]cc2-c2ccnc(-c3ccc(OCCn4ccnc4)cc3)c2)nc1     -0.98
12      Cc1cc(O)cc(C)c1/C=C/c1cncc(C(N)=O)c1      0.55
13  OCCCNc1nccc(-c2c(-c3ccc(F)cc3)nn3cc(C(F)(F)F)ccc23)n1     -0.49
14  CCS(=O)(=O)c1ccc(OC)c(Nc2ncc(-c3cccc(F)c3)o2)c1      1.26
15  CS(=O)(=O)CCNCc1ccc(-c2ccc3ncnc(Nc4ccc(OCc5ccccc5)cc4)c3c2)o1     -0.23
16  Fc1cccc(COc2ccc(Nc3ncncc3C#Cc3ccccc3)cc2Cl)c1      3.88
17  CNC(=O)c1sc(-n2cnc3cc(OC)c(OC)cc32)cc1OCc1ccccc1C(F)(F)F     -0.45
18         COc1ccc(Nc2ncc(-c3ccccc3)o2)cc1OC       8.4
19  CCOc1ccc2c(-c3ccnc(Nc4cc(OC)cc(C(F)(F)F)c4)n3)cnn2n1      20.1
20  CC1=C(C(=O)Nc2ccc3[nH]ncc3c2)C(c2ccc(F)cc2)N=C(c2ccc(C(F)(F)F)nc2)N1 (stereo unspecified)      0.16
21  Cc1c2ccc(N(C)c3ccnc(Nc4cccc(S(N)(=O)=O)c4)n3)cc2nn1C     -4.42

====

biological target: Tyrosine-protein kinase Fyn (Homo sapiens); settings: at 1 µM
Description: GSK_PKIS: FYN mean inhibition at 1 uM [Nanosyn]
Class (by inhibition) -- low end: < 4%; middle: ≥ 4% and < 20%; high end: ≥ 20%

> print(dat)
                                   molecule  group.label
1  COc1ccc(-c2nn3ncccc3c2-c2ccnc(Nc3ccc(F)c(F)c3)n2)cc1       middle
2  NS(=O)(=O)c1cccc(N/C=C2\C(=O)Nc3ccccc32)c1       middle
3  CC1=C(C(=O)Nc2ccc3[nH]ncc3c2)C(c2ccc(F)cc2)N=C(c2ccc(C(F)(F)F)nc2)N1 (centres undefined)      low end
4      Cc1cc(O)cc(C)c1/C=C/c1cncc(C(N)=O)c1     high end
5  CC1=C(C(=O)Nc2ccc3[nH]nc(C)c3c2)C(c2ccc(C(F)(F)F)cc2)CC(=O)N1 (centres undefined)      low end
6  CNC(=O)c1sc(-n2cnc3cc(OC)c(OC)cc32)cc1OCc1ccccc1C(F)(F)F       middle
7  COC(=O)Nc1nc2ccc(Oc3ccc(NC(=O)Nc4cc(C(F)(F)F)ccc4F)cc3)cc2s1     high end
8  O=C(O[C@H]1CN[C@H](C#Cc2cc3ncnc(Nc4ccc(OCc5cccc(F)c5)c(Cl)c4)c3s2)C1)N1CCOCC1       middle
9  CS(=O)(=O)CCNCc1ccc(-c2ccc3ncnc(Nc4ccc(OCc5ccccc5)cc4)c3c2)o1       middle

====

inhibition values by entry
system: Proto-oncogene tyrosine-protein kinase receptor Ret (Homo sapiens), P07949 [Y791F]; details: at 1 µM
Sequence (P07949 whole entry Y791F): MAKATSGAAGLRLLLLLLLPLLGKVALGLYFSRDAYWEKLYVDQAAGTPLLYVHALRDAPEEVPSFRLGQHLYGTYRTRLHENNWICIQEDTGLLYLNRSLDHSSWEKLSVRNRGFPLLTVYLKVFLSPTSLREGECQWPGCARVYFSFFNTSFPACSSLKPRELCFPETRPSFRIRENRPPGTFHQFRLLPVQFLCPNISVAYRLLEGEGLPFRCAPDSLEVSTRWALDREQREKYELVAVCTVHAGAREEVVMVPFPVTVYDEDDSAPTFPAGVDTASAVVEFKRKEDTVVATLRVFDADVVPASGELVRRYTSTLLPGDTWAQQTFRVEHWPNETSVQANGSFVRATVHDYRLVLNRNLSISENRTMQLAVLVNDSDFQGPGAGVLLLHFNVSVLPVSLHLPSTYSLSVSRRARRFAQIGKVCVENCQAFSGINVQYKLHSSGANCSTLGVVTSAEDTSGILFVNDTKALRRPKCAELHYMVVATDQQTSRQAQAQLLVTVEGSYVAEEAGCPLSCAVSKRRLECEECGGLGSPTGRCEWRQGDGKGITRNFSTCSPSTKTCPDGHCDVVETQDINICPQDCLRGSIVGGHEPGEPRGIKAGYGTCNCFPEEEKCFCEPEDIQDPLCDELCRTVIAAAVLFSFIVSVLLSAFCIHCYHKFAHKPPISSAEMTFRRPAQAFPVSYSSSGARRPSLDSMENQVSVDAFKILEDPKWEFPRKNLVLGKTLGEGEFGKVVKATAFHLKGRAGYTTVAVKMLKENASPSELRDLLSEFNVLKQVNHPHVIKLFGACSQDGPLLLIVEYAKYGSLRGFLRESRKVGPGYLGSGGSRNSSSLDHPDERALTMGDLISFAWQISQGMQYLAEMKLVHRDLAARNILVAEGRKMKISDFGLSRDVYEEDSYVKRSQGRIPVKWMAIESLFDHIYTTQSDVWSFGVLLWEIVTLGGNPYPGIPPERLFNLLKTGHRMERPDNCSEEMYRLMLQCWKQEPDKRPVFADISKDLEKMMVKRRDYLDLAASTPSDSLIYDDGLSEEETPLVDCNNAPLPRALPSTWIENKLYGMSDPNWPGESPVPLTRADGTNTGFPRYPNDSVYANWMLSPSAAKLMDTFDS
measurement label: inhibition (%)

> print(dat)
                                         mol                             target.system  observed
 1  CNC(=O)c1ncccc1Nc1nc(Nc2cc3c(cc2OC)CCCN3C(=O)CN(C)C)nc2[nH]ccc12  Proto-oncogene tyrosine-protein kinase receptor Ret (Homo sapiens), P07949 [Y791F]      27.1
 2  CCN1CCC(C(=O)Nc2n[nH]c3nnc(-c4cccc(F)c4F)cc23)CC1  Proto-oncogene tyrosine-protein kinase receptor Ret (Homo sapiens), P07949 [Y791F]      3.53
 3  CS(=O)(=O)CCNCc1ccc(-c2ccc3ncnc(Nc4ccc(OCc5cccc(C(F)(F)F)c5)cc4)c3c2)o1  Proto-oncogene tyrosine-protein kinase receptor Ret (Homo sapiens), P07949 [Y791F]       6.5
 4           CNC(=O)c1cncc(/C=C/c2ccccc2C)c1  Proto-oncogene tyrosine-protein kinase receptor Ret (Homo sapiens), P07949 [Y791F]      12.3
 5  CS(=O)(=O)Nc1ccc(-c2cc(-c3ccccc3)cc(C(N)=O)c2N)cc1  Proto-oncogene tyrosine-protein kinase receptor Ret (Homo sapiens), P07949 [Y791F]      3.96
 6  CN1CCC(n2cnc(-c3ccc(F)cc3)c2-c2ccnc(NCCO)n2)CC1  Proto-oncogene tyrosine-protein kinase receptor Ret (Homo sapiens), P07949 [Y791F]      15.2
 7  CS(=O)(=O)CCNCc1ccc(-c2ccc3ncnc(Nc4ccc(OCc5ccccc5)cc4)c3c2)o1  Proto-oncogene tyrosine-protein kinase receptor Ret (Homo sapiens), P07949 [Y791F]      9.58
 8  COc1ccccc1-c1cc(/C=C2\C(=O)Nc3ncc(Br)cc32)cc(Br)c1O  Proto-oncogene tyrosine-protein kinase receptor Ret (Homo sapiens), P07949 [Y791F]      13.2
 9  COc1ccc2ncn(-c3cc(O[C@H](C)c4ccccc4C(F)(F)F)c(C(N)=O)s3)c2c1  Proto-oncogene tyrosine-protein kinase receptor Ret (Homo sapiens), P07949 [Y791F]      4.51
10  NS(=O)(=O)c1cccc(N/C=C2\C(=O)Nc3ccccc32)c1  Proto-oncogene tyrosine-protein kinase receptor Ret (Homo sapiens), P07949 [Y791F]      34.3

====

inhibition values by entry
molecular target: Macrophage colony-stimulating factor 1 receptor (Homo sapiens); conditions: at 1 µM;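 also: mean inhibition of FMS, from the GSK PKIS screening set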
measurement label: inhibition (%)

> print(dat)
                                   compound  measurement.units  observed
1           CNC(=O)c1cncc(/C=C/c2ccccc2C)c1                  %      4.09
2        FC(F)(F)CNc1nccc(-c2cnn3ncccc23)n1                  %      3.68
3  CC1=C(C(=O)Nc2ccc3[nH]ncc3c2)C(c2ccc(F)cc2)N=C(c2ccc(C(F)(F)F)nc2)N1 (stereo unspecified)                  %      2.25
4  COc1ccc2ncn(-c3cc(O[C@H](C)c4ccccc4C(F)(F)F)c(C(N)=O)s3)c2c1                  %      5.84
5  CCOc1ccc2c(-c3ccnc(Nc4cc(OC)cc(C(F)(F)F)c4)n3)cnn2n1                  %      17.2
6  O=C(O[C@H]1CN[C@H](C#Cc2cc3ncnc(Nc4ccc5c(cnn5Cc5ccccc5)c4)c3s2)C1)N1CCOCC1                  %      4.04

Origin of values: ChEMBL document CHEMBL1961873
